protocol notes: Acute toxicity after oral administration
measurement context: in vivo, rat
reported endpoint: LD50

Reported LD50 ( CC[C@H]1OC(=O)[C@H](C)[C@@H](O[C@H]2C[C@@](C)(OC)[C@@H](O)[C@H](C)O2)[C@H](C)[C@@H](O[C@@H]2O[C@H](C)C[C@H](N(C)C)[C@H]2O)[C@](C)(O)C[C@@H](C)C(=O)[C@H](C)[C@@H](O)[C@]1(C)O [Erythromycin, erythromycin] ) = > 6000 mg/kg
